Source: the RNAGym collection of RNA variant scans (doi:10.1093/molbev/msab373)

B1: Azoarcus group I ribozyme (parent)
chain: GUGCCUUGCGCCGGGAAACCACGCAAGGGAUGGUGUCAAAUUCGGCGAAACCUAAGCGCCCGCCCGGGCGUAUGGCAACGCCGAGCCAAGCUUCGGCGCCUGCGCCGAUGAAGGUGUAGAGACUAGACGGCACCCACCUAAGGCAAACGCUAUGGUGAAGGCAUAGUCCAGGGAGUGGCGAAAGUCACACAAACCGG

- Variants of: B1
- EXPERIMENT: reverse-splicing fitness (ratio to wild type); higher = more active; in vitro selection; Mg2+ level not given
OBSERVATION TYPE: reverse-splicing fitness
The answer should be written as a number, with no unit following it.

Consider the following illustrative entries.
C82U A111G A120G A145C C150U U176A	0.0079
C82G A111G A120C C150G C169G	0.008

Next up:
Fill blank: measured reverse-splicing fitness of the variant C82G C150G C169G is ____.
0.00811
